molecular target: hCA XII (Homo sapiens, UniProt O43570); assay: stopped flow CO2 hydrase assay, hCA XII; type: biochemical; conditions: KI hCA II / KI hCA XII
Sequence (O43570 25-354): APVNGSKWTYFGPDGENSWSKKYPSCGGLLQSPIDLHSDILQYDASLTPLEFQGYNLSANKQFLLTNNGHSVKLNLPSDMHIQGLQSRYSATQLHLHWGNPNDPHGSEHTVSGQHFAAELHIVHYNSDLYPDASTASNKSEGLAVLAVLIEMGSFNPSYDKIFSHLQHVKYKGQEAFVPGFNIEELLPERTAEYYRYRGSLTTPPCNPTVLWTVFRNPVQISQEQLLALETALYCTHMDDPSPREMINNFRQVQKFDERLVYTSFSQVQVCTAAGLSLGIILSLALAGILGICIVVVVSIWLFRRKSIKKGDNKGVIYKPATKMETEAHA
Result Type: Selectivity ratio II/XII

These solved cases illustrate the format of a correct answer.
1. NS(=O)(=O)c1ccc(NN=C2C(=O)N(CC(=O)Nc3ccccc3)c3ccccc32)cc1 [3a] ... 0.071
2. NS(=O)(=O)c1ccc(NCC(=O)NN=C2C(=O)N(CC(=O)Nc3ccccc3)c3ccccc32)cc1 [4a] ... 0.118
3. NS(=O)(=O)c1ccc(NCC(=O)NN=C2C(=O)N(CC(=O)Nc3ccccc3Cl)c3ccccc32)cc1 [4f] ... 3.937

I. NS(=O)(=O)c1ccc(NCC(=O)NN=C2C(=O)N(CC(=O)Nc3ccccc3Br)c3ccccc32)cc1 [4g]
II. NS(=O)(=O)c1ccc(NC(=O)CN2C(=O)C(=O)c3ccccc32)cc1 [2h]
Kindly identify the item with the lower Selectivity ratio II/XII figure among these two: I and II Pick one and reply with its label.
II
(II: 0.742, I: 2.373)
